Item-by-item account of IC50
- METHOD_DESCRIPTION: Cytotoxicity against human HDF cells assessed as reduction in cell viability measured after 36 to 48 hrs by MTT assay
- Format: toxicity, cell-based

These recorded examples may help you get a feel for the data.
CCCCCCCCCC(=O)Nc1ccc(-c2c3nc(c(-c4ccc[n+](C)c4)c4ccc([nH]4)c(-c4ccc[n+](C)c4)c4nc(c(-c5ccc[n+](C)c5)c5ccc2[nH]5)C=C4)C=C3)cc1.[Cl-].[Cl-].[Cl-] > 100 µM
CCCCCCCC(=O)Nc1ccc(-c2c3nc(c(-c4ccc[n+](C)c4)c4ccc([nH]4)c(-c4ccc[n+](C)c4)c4nc(c(-c5ccc[n+](C)c5)c5ccc2[nH]5)C=C4)C=C3)cc1.[Cl-].[Cl-].[Cl-] > 100 µM

Would you kindly share the measured IC50 for CCCCCCCCCCCCCC(=O)Nc1ccc(-c2c3nc(c(-c4ccc[n+](C)c4)c4ccc([nH]4)c(-c4ccc[n+](C)c4)c4nc(c(-c5ccc[n+](C)c5)c5ccc2[nH]5)C=C4)C=C3)cc1.[Cl-].[Cl-].[Cl-] ? > 100 µM

Form field: reported IC50 of CCCCCCCCCCCCCCCCCC(=O)Nc1ccc(-c2c3nc(c(-c4ccc[n+](C)c4)c4ccc([nH]4)c(-c4ccc[n+](C)c4)c4nc(c(-c5ccc[n+](C)c5)c5ccc2[nH]5)C=C4)C=C3)cc1.[Cl-].[Cl-].[Cl-] > 100 µM

Given the compound CCCCCCCCCCCC(=O)Nc1ccc(-c2c3nc(c(-c4ccc[n+](C)c4)c4ccc([nH]4)c(-c4ccc[n+](C)c4)c4nc(c(-c5ccc[n+](C)c5)c5ccc2[nH]5)C=C4)C=C3)cc1 , what is its reported IC50? > 100 µM

For the compound shown here, CCCCCCCCCCCCCCCC(=O)Nc1ccc(-c2c3nc(c(-c4ccc[n+](C)c4)c4ccc([nH]4)c(-c4ccc[n+](C)c4)c4nc(c(-c5ccc[n+](C)c5)c5ccc2[nH]5)C=C4)C=C3)cc1.[Cl-].[Cl-].[Cl-] , give the reported IC50. > 100 µM

Requested field: IC50. Item: CC(=O)Nc1ccc(-c2c3nc(c(-c4ccc[n+](C)c4)c4ccc([nH]4)c(-c4ccc[n+](C)c4)c4nc(c(-c5ccc[n+](C)c5)c5ccc2[nH]5)C=C4)C=C3)cc1.[Cl-].[Cl-].[Cl-] > 100 µM

====

pIC50 by entry:
- METHOD_DESCRIPTION: Phototoxicity against human A-375 cells assessed as reduction in cell viability incubated for 6 hrs followed by irradiation for 30 mins with light at wavelength of 643 nm and measured after 36 to 48 hrs by MTT assay
- Assay type: functional, cell-based
- CONDITIONS_USED: A-375, light or radiation study
The scale used: pIC50 is minus the common logarithm of the concentration in molar units.

CCCCCCCCCCCC(=O)Nc1ccc(-c2c3nc(c(-c4ccc[n+](C)c4)c4ccc([nH]4)c(-c4ccc[n+](C)c4)c4nc(c(-c5ccc[n+](C)c5)c5ccc2[nH]5)C=C4)C=C3)cc1 6.54
CCCCCCCCCCCCCCCC(=O)Nc1ccc(-c2c3nc(c(-c4ccc[n+](C)c4)c4ccc([nH]4)c(-c4ccc[n+](C)c4)c4nc(c(-c5ccc[n+](C)c5)c5ccc2[nH]5)C=C4)C=C3)cc1.[Cl-].[Cl-].[Cl-] 7.00
CCCCCCCCCCCCCC(=O)Nc1ccc(-c2c3nc(c(-c4ccc[n+](C)c4)c4ccc([nH]4)c(-c4ccc[n+](C)c4)c4nc(c(-c5ccc[n+](C)c5)c5ccc2[nH]5)C=C4)C=C3)cc1.[Cl-].[Cl-].[Cl-] 7.05
CCCCCCCCCC(=O)Nc1ccc(-c2c3nc(c(-c4ccc[n+](C)c4)c4ccc([nH]4)c(-c4ccc[n+](C)c4)c4nc(c(-c5ccc[n+](C)c5)c5ccc2[nH]5)C=C4)C=C3)cc1.[Cl-].[Cl-].[Cl-] 6.04
CCCCCCCC(=O)Nc1ccc(-c2c3nc(c(-c4ccc[n+](C)c4)c4ccc([nH]4)c(-c4ccc[n+](C)c4)c4nc(c(-c5ccc[n+](C)c5)c5ccc2[nH]5)C=C4)C=C3)cc1.[Cl-].[Cl-].[Cl-] 5.60

Now examine the next entry.
Consider the compound CCCCCCCCCCCCCCCCCC(=O)Nc1ccc(-c2c3nc(c(-c4ccc[n+](C)c4)c4ccc([nH]4)c(-c4ccc[n+](C)c4)c4nc(c(-c5ccc[n+](C)c5)c5ccc2[nH]5)C=C4)C=C3)cc1.[Cl-].[Cl-].[Cl-] and give its measured pIC50. 7.05
